B1: HDV Ribozyme (parent)
chain: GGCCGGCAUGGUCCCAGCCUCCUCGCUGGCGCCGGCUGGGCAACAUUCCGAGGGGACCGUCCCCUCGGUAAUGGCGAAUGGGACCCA

- Variants of: B1
- Experiment description: self-cleavage, relative activity (ratio to wild type); higher = more cleavage; co-transcriptional
Parameter measured: self-cleavage
One number for each entry.

Variant descriptor	self-cleavage
G39U G54A	0.59
G55C C57U	0.976
C30A A45G	0.391
U23G A51G	0.8
C7U C21G	0.0739
G6U G11U	0.0361
C21G C22A	0.0396
C4U G34C	0.151

Take each entry in turn and give its self-cleavage.
1. U27A C48A
2. G1C C63U
3. C14A U72A
4. C61U A71U
5. U47C G74A
6. C13U C24G
7. C32A A45U

A:
[0.831, 0.0898, 0.332, 1.02, 0.233, 0.0615, 0.151]

Parameters: items (list). Returns: self-cleavage for each item.
1. A8C U12C
2. C7U G29U
3. C22G G81C
4. G5A C84A
5. G25A G80U
6. C18G A43G
7. C24A G25A

A:
1. 0.208
2. 0.157
3. 0
4. 0.172
5. 0.0923
6. 0.145
7. 0.102
